- Test system: rabbit skeletal myofibrils (fast skeletal myofibrils)
- protocol.notes: Activation of fast skeletal myofibrils (PUMA assay, PK/LDH-coupled ATPase at pCa25)
- Assay type: biochemical
- details: AC1.4 determined according to the procedure of Example 39; reported as class symbols
endpoint.label: Mean AC1.4

// solved cases for Mean AC1.4 follow
COc1cccc(C2(CNc3ccc(-c4cc(C(N)=O)ccc4F)nn3)CCC2)n1: A (A=<1 uM)
CC(=O)NCc1ccc(-c2ccc(NCC(C)(C)c3ccc(F)cc3)nn2)cn1: C (C=10-20 uM)
CN(C)CCc1cccc(C(C)(C)CNc2ccc(-c3ccc4[nH]nc(N)c4c3)nn2)c1: D (D=>20 uM)
CC(C)(CNc1ccc(-c2ccc3c(N)n[nH]c3c2)nn1)c1ccc(F)cn1: C (C=10-20 uM)

Look at each compound and report its Mean AC1.4.
1. CC(C)(C)OC(=O)N(CC(C)(C)c1ccc(F)cc1)c1ccc(-c2ccc3[nH]c(=O)c(=O)[nH]c3c2)nn1
2. CC(=O)N1CC(CNc2ccc(-c3cccc(C(N)=O)c3)nn2)(c2ncccc2F)C1
3. COc1cccc(C2(CNc3ccc(-c4ccc5[nH]ncc5c4)nn3)CCC2)n1
4. CC(C)CC(NC(=O)c1ccc(NCC(C)(C)c2ccc(F)cc2)nn1)C(N)=O (centres unmarked)
5. N=C(N)c1cccc(-c2ccc(NCC3(c4ncccc4F)CCC3)nn2)c1
6. CC1(C)C(=O)Nc2cc(-c3ccc(NCC4(c5ncccc5F)CCC4)nn3)ccc21

Completion:
D (D=>20 uM)
D (D=>20 uM)
A (A=<1 uM)
C (C=10-20 uM)
D (D=>20 uM)
D (D=>20 uM)

* * *

- Test system: rabbit skeletal myofibrils (fast skeletal myofibrils)
- protocol.notes: Activation of fast skeletal myofibrils (PUMA assay, PK/LDH-coupled ATPase at pCa25)
- Type: biochemical
- details: AC1.4 determined according to the procedure of Example 39; reported as class symbols
endpoint.label: Mean AC1.4

CC(C)(CNc1ccc(-c2ccc(N)nc2)nn1)c1ccc(F)cc1: A (A=<1 uM)
CC(CNc1ccc(-c2cccc(C(N)=O)c2)nn1)c1ccccc1F (stereo not shown): B (B=1-10 uM)
CC(C)(CNc1ccc(-c2cccc(C(=O)NCCNC(=O)c3cccc(-c4ccc(NCC(C)(C)c5ccc(F)cc5)nn4)c3)c2)nn1)c1ccc(F)cc1: B (B=1-10 uM)
NC(=O)c1cccc(-c2ccc(NCC3(c4ccc(F)cc4)CCC3)nn2)c1: A (A=<1 uM)
COc1ccc(C2(CNc3ccc(-c4cc(C(N)=O)ccc4F)nn3)CCC2)nc1: D (D=>20 uM)

Here are 4 compounds. What values of Mean AC1.4 were reported for them?
1. CC(C)(CNc1ccc(C(=O)N2CCC(C(N)=O)CC2)nn1)c1ccc(F)cc1
2. COc1ncccc1-c1ccc(NCC(C)(C)c2ccc(F)cc2)nn1
3. CS(=O)(=O)Nc1ccc(-c2ccc(NCC3(c4ncccc4F)CCC3)nn2)cc1
4. CC(C)(CNc1ccc(C(=O)N2CCC2C(N)=O)nn1)c1ccc(F)cc1 (stereo not shown)

Completion:
["D (D=>20 uM)", "A (A=<1 uM)", "B (B=1-10 uM)", "D (D=>20 uM)"]

* * *

- Test system: rabbit skeletal myofibrils (fast skeletal myofibrils)
- protocol.notes: Activation of fast skeletal myofibrils (PUMA assay, PK/LDH-coupled ATPase at pCa25)
- Assay type: biochemical
- details: median AC1.4 class, procedure of Example 39
endpoint.label: Mean AC1.4

Please review the following examples before continuing.
O=C1Cc2ccc(-c3ccc(NCC4(c5ncccc5F)CCC4)nn3)cc2N1: B (B=1-10 uM)
Fc1cccnc1C1(CNc2ccc(-c3ccnnc3)nn2)CCC1: D (D=>20 uM)
NS(=O)(=O)Nc1ccc(F)c(-c2ccc(NC3(c4ncccc4F)CCC3)nn2)c1: B (B=1-10 uM)
Nc1ncc(-c2ccc(NCC3(c4ncccc4F)CCC3)nn2)cn1: B (B=1-10 uM)
NC(=O)c1cccc(-c2ccc(NCC3(c4ncccc4F)CC(F)(F)C3)nn2)c1: B (B=1-10 uM)

Go through the items and report each one's Mean AC1.4.
1. O=C(NCc1cnc(-c2ccc(NCC3(c4ncccc4F)CCC3)nn2)s1)c1cn[nH]c1
2. NC(=O)CNC(=O)c1cnc(-c2ccc(NCC3(c4ncccc4F)CCC3)nn2)s1

Completion:
A (A=<1 uM)
A (A=<1 uM)

Can you give me Mean AC1.4 for all of these, one by one?
1. NC(=O)c1ccc(F)c(-c2ccc(NC3(c4ccc(O)cn4)CCC3)nn2)c1
2. NC(=O)c1ccc(F)c(-c2ccc(NC3(c4ncccc4OC(F)F)CCC3)nn2)c1
3. CS(=O)(=O)Nc1cccc(-c2ccc(NC3(c4ncccc4OC(F)F)CCC3)nn2)c1
4. COC(=O)c1ccc(F)c(-c2ccc(NC[C@]3(c4ncccc4F)C[C@H](F)C3)nn2)c1
5. C[C@@H](N)C(=O)NCc1cnc(-c2ccc(NCC3(c4ncccc4F)CCC3)nn2)s1

Completion:
D (D=>20 uM)
C (C=10-20 uM)
C (C=10-20 uM)
B (B=1-10 uM)
A (A=<1 uM)

Look up Mean AC1.4 for the entries below, preserving their order.
1. NS(=O)(=O)c1cccc(-c2ccc(NC[C@]3(c4ncccc4F)C[C@H](F)C3)nn2)c1
2. CC(C)(C)OC(=O)N1CCN(c2ncc(-c3ccc(NCC4(c5ncccc5F)CCC4)nn3)cn2)CC1
3. O=C(NC1CCNC1=O)c1cnc(-c2ccc(NCC3(c4ncccc4F)CCC3)nn2)s1 (centres unmarked)
4. CC(C)(O)CNC(=O)c1ccc(F)c(-c2ccc(NC3(c4ccc(F)cc4)CCC3)nn2)c1
5. NC(=O)c1csc2nc(-c3ccc(NCC4(c5ncccc5F)CCC4)nn3)cn12

Completion:
1: B (B=1-10 uM); 2: D (D=>20 uM); 3: B (B=1-10 uM); 4: B (B=1-10 uM); 5: A (A=<1 uM)
